METRIC NAME: melting point

# MOLECULE, melting point
data = [
    ("Cc1nc(-n2ccc(OCc3ccccc3)cc2=O)sc1C(=O)NCc1ccc(F)cc1", "223 to 225 °C"),
    ("COC(=O)CCSC(SCCC(=O)OC)c1cccc(C=Cc2ccc3ccc(Cl)cc3n2)c1", "53 °C"),
    ("O=C(c1ccc(Cl)c([N+](=O)[O-])c1)c1nccs1", "118 to 119 °C"),
]

Supply recorded melting point for O=C(c1ccc(O)cc1)c1sc2ccc(O)cc2c1-c1ccccc1 here.
152 to 153 °C

Note melting point for the molecule shown: CC1CN(C(=O)C(Cl)Cl)C(C)CN1C(=O)C(Cl)Cl (centres undefined)
215 °C

Given the molecule COc1cc(C(C)=O)ccc1OCCCN1CCC(C(O)(c2ccc(F)cc2)c2ccc(F)cc2)CC1 , write its reported melting point.
142 to 143 °C

Kindly indicate its recorded melting point. Item: Cc1noc(NS(=O)(=O)c2ccc(Cc3ccccc3)s2)c1Br
49 to 50 °C

For the molecule COc1ccc(S(N)(=O)=O)cc1C(O)C(C)N=[N+]=[N-] (centres undefined) , give its reported melting point.
109 to 110 °C

Identify melting point associated with the molecule CCC(CC)(CC(=O)Nc1cccc(OCc2ccc3ccc(Cl)cc3n2)c1)C(=O)O
87.5 to 88.5 °C

---

Below, each entry is listed with its recorded melting point.

# COMPOUND, melting point
data = [
    ("COc1cc(N)c(Cl)cc1C(=O)NCCC1CN(Cc2ccccc2)CCO1 (centres undefined)", "68 to 72 °C"),
    ("COc1ccc(C#N)cc1-c1cc(-c2ccc(C#N)cc2[N+](=O)[O-])no1", "264 to 266 °C"),
    ("CC(C)(C)CC(C)(C)c1ccc(OS(=O)(=O)c2ccc(C(C)(C)C)cc2)cc1", "68 to 71 °C"),
]

Look up and state reported melting point for CCOC(=O)c1ccc2c(c1)C(=O)N(C1CC(C)(C)N(C(C)=O)C(C)(C)C1)C2=O
119 to 121 °C

Provide measured melting point value, entry: COc1cc(/C=C/c2ccc(C(C)(C)C)cc2)cc(OC)c1OC
127 to 128 °C

Provide one value: measured melting point of NC1=CC(=O)CC(c2ccccc2)C1 (centres undefined)
190 to 191 °C

State its melting point: Fc1ccc(Cn2c(NC3CCN(CCOc4nc5ccccc5s4)CC3)nc3ccccc32)cc1
147 °C

Give the value of melting point reported for the following: O=C(N[C@@H](CS)C(=O)O)C(Sc1nc2cc(Cl)ccc2s1)c1ccccc1 (some centres undefined)
155 to 158 °C

Fill in reported melting point for this entry: O=S(=O)(NC(=NO)Nc1ccc(Cl)cc1)c1cc(S(=O)(=O)c2ccccc2)cs1
195 °C

---

Below, each entry is listed with its recorded melting point.

# COMPOUND, melting point
rows = [
    ("O=C(c1ccc(-c2ccccc2)cc1)n1c2cc(O)c(O)cc2c2ccc(O)c(O)c21", "291 to 294 °C"),
    ("C[C@@H]1CCN(C(=O)CC#N)C[C@@H]1N(C)c1ncnc2sccc12", "74.3 °C"),
    ("OCC1OC(n2c(Cl)nc3ccc(Cl)cc32)C(O)C1O (stereo not given)", "162 to 163 °C"),
]

Consider the compound COCn1cncc1C[C@H](NC(=O)C(Cc1cccc2ccccc12)Cc1cccc2ccccc12)C(=O)OC and give its recorded melting point.
182 to 185 °C

Tell me melting point reported for CCOC(=O)CCC(C)c1ccc(O)cc1 (stereo not given)
32 to 34 °C

Given COC(=O)CCc1ccc(NC(=O)C(COC2CCCCO2)NS(=O)(=O)c2ccc(Cl)cc2)cc1 (racemic) , respond with its melting point.
102 to 107 °C

Indicate the recorded melting point value for this compound: CC(C)(C)C(=O)COc1nn(CC(=O)C(C)(C)C)c(-c2ccc(S(C)(=O)=O)cc2)c1-c1ccc(F)cc1
180 to 182 °C

For the compound Cc1nn(CC(C)(C)O)c(-c2ccc(F)cc2)c1-c1ccc2c(c1)NC(=O)CO2 , give its measured melting point value.
166 to 167 °C

Assign melting point to the following record: CC(c1ccccc1)N1CCC(n2cnc3ccc(Cl)cc3c2=O)CC1 (stereo not given)
160 to 162 °C

Please supply the value of reported melting point for the item O=C(O)c1ccc(Nc2cc3c4c(c2)CCCC4CCC3)cc1
204 to 205 °C

Retrieve melting point measured for COc1ccc(C(=C(CCBr)c2ccccc2)c2ccccc2)cc1 and print it.
116 to 118 °C

Return melting point for the following compound: CC(C)Cn1c(CNC(=O)OC(C)(C)C)c(-c2ccccc2)c2cc(CCC(=O)O)ccc2c1=O
182 to 183 °C

Assign melting point to the following record: Cc1c(Br)ccc2c1oc1ccccc12
124 to 125 °C

Determine its reported melting point: COc1ccc(C2SCc3c(sc(N)c3C(=O)c3ccc(Cl)cc3)S2)cc1 (stereo not given)
158 to 160 °C

Quick one: give measured melting point for COC(=O)Nc1cn2nc(OCc3cc(OC)c(OC)c(OC)c3)ccc2n1
213 to 215 °C

Check the records and state melting point for COC(=O)c1cccc(Cn2nc(C(N)=O)c3ccccc32)c1
166 to 168 °C

Give melting point for the following compound: Cn1c(=O)c2c(Cl)nccc2n(C)c1=O
220 °C

Please list melting point recorded for the compound Cc1ccc(-c2nc(OC(C)C)c(Br)c(OC(C)C)n2)cc1
74 to 75 °C

Fill in melting point for record COC(=O)/C=C/c1ccc(CC(C)NCC(O)c2cccc(Br)c2)cc1 (stereo not given)
105 to 111 °C

Answer with the recorded melting point for the compound listed here: CNC(=O)c1cc(C#N)cc(Cl)c1NC(=O)c1cc(Cl)nn1-c1ncccc1Cl
197 to 200 °C

Tell me melting point reported for Fc1cc2c(cc1F)CC(n1cc[nH]c1=S)CC2 (stereo not given)
206 to 207 °C

Identify melting point associated with the compound Nc1nsnc1-c1ccc(Cl)cc1
132 to 133 °C

Report melting point, nothing else, for this compound: Oc1ccc(C2(c3cccc(O)c3)c3ccccc3-c3ccccc32)cc1
221 °C

Provide melting point value for the following compound: CS(=O)(=O)N[C@H]1CC[C@H](Nc2nccc(-n3ncc4ccccc43)n2)CC1
270 °C

Respond only with melting point recorded for O=C(CC(=O)C1CC1)c1cnc2ccccc2n1
113 to 115 °C

Values from a melting point compilation (Tetko et al.; mined from patent text by program, amines drawn as free bases though some values may be those of a salt)
